Hey, just so you know, these numbers are from PubChem BioAssay AID256.

tested on: CD2F1 mice, L1210 leukemia ip, survival T/C; test: NCI In Vivo Anticancer Drug Screen. Data for tumor model L1210 Leukemia (intraperitoneal) in CD2F1 (CDF1) mice; conditions: endpoint: mean survival time; dose: 100.0 mg/kg/injection; schedule: Q01DX009 (ip); vehicle: saline with Tween-80; higher = longer survival
Inconclusive results and toxic doses are left out.
endpoint.name: T/C

For orientation, consider the following solved cases.
ClC(Cl)=C(c1ccc(Cl)cc1)c1ccc(Cl)cc1: 103 % of control
CC(=O)NC(Cc1cc(I)c(OC(C)=O)c(I)c1)C(=O)O (stereo not given): 93 % of control
CC(O)CN1CCOCC1 (stereo not given): 101 % of control
CN(CC#CCOc1ccc(Br)cc1)c1ccccc1: 103 % of control
O=C(Oc1c(Cl)c(Cl)c(Cl)c(Cl)c1Cl)c1ccc([N+](=O)[O-])cc1: 101 % of control
Cc1cc2oc(=O)cc(O)c2c(=O)o1: 96 % of control
O=C(Nc1ccc(Cl)c(Cl)c1)c1cc(Cl)ccc1O: 102 % of control
CC1C2CCC(C2)C1C(=O)O (stereo not given): 98 % of control
C1CC[N-]CC1.C1CC[N-]CC1.[Cl][Rh]([Cl])[Cl]: 94 % of control
O=C1C(Br)CCC1C(O)(C(F)(F)F)C(F)(F)F (stereo not given): 102 % of control

// each compound listed below needs its T/C
1. CCCCCCCCC1SC1CCCCCCCC(=O)NCCOC(=O)CCCCCCCC1SC1CCCCCCCC (stereo not given)
2. COc1ccc(/C=C/C(=O)c2ccccc2)cc1Br
3. CCOc1nc(OCC)nc(-c2cccn2-c2ccccc2)n1
4. Cc1ccc(S(=O)(=O)/C=C(/SC#N)C2CCCCC2)cc1
5. c1ccc(-c2cc(-c3cc(-c4ccccc4)on3)no2)cc1
6. COc1cc2c(c(OC)c1OC)-c1cc(I)c(O)cc1[C@@H](NC(C)=O)CC2
7. CSC(=S)N(C)/N=C/c1ccccn1

## Output
["92 % of control", "104 % of control", "95 % of control", "96 % of control", "94 % of control", "98 % of control", "98 % of control"]

Record T/C per entry; entries follow.
1. CCCN(CCC)CCCCCCO
2. O=S(O)C(=Nc1ccccc1)Nc1ccccc1
3. Cc1ccc(C(C)C)c(O)c1O
4. CC(O)C(O)C(O)C(/C=N\N=C(/N)[S-])=N/N=C(\N)[S-].[Pt+2] (stereo not given)
5. C=CCN(CC=C)C(=O)NCC(=O)OCC
6. CCCCCCCCCCCCCCCCOP(=O)(O)OCCCCCCCCCCCCCCCC
7. Cc1ccc2ccccc2c1N(CC(=O)O)S(=O)(=O)c1ccccc1
8. O=C(CC1CCCCC1)N/N=C/c1cccc([N+](=O)[O-])c1

## Output
1: 98 % of control; 2: 94 % of control; 3: 97 % of control; 4: 91 % of control; 5: 95 % of control; 6: 95 % of control; 7: 103 % of control; 8: 90 % of control
